Origin of measurements: patent US20160362487A1

kon listing for selected binders.
- Target system: T1, human IL-33 (R&D Systems, #3625-IL-010/CF) (human, UniProt O95760 112-270)
- T1 construct: Commercial recombinant protein; also called hIL-33; interleukin-33
- T1 sequence (looked up): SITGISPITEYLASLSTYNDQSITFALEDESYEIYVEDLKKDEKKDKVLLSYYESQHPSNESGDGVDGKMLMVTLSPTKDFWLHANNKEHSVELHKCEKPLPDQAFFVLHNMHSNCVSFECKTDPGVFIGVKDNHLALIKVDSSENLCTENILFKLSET
- Experimental protocol: SPR 37C pH7.4, mAb captured
API: value field is a number in M⁻¹ s⁻¹; no unit string.

Consider the reported kon for these binders:
{"columns": ["Binder", "Measurement label", "Observed value"],
 "data": [
  ["H1M9559N (antibody, mouse IgG1, V domains shown, Human variable domains, mouse IgG1 Fc (H1M)) VH: QVQLVESGGGVVQPGRSLRLSCAASGFTFSSYGMHWVRQAPGKGLEWVAVIWYDGRNKYYTDSVKGRFTISRDNSKNTLYLQMDSLRAEDTAVYYCARERYISSYYGGFDPWGQGALVTVSS VL: DIQMTQSPSSVSASVGDRVTITCRASQGISSWLAWYQQKPGKAPKVLIYAASSLQSGVPSRFSGSGSGTDFTLTISSLQPEDFATYYCQQANSFPFTFGPGTKLDIK", "kon", 473000],
  ["H4H9675P (antibody, human IgG4, V domains shown, Human IgG4 Fc (H4H)) VH: EVQLVESGGNLEQPGGSLRLSCTASGFTFSRSAMNWVRRAPGKGLEWVSGISGSGGRTYYADSVKGRFTISRDNSKNTLYLQMNSLSAEDTAAYYCAKDSYTTSWYGGMDVWGHGTTVTVSS VL: DIQMTQSPSSVSASVGDRVTITCRASQGIFSWLAWYQQKPGKAPKLLIYAASSLQSGVPSRFSGSGSGTDFTLTISSLQPEDFAIYYCQQANSVPITFGQGTRLEIK", "kon", "2.12e+06"],
  ["H4H9670P (antibody, V domains shown, Human IgG4 Fc (H4H)) VH: EVQLVESGGGLVQPGGSLRLSCAASGFTLSSYAMSWVRQAPGKGLEWVSAISGSGGSTYYADSVKGRFTISRDNSKNSLYLQLNSLRAEDTAVYYCAKTLYTTSWYGGFQHWGQGTLVTVSS VL: DIQMTQSPSSVSASIGDRVTITCRASQGISSWLAWYQQKPGKVPKLLIYAASSLQSGFPSRFSGSGSGTDFTLTISSLQPEDFATYYCQQTHSFPWTVGQGTKVEIK", "kon", "1.16e+06"],
  ["H4H9664P (antibody, human IgG4, V domains shown, Human IgG4 Fc (H4H)) VH: QVQLVESGGGVVQPGRSLRLSCAASGFTFSSYGLHWVRQSPGKGLEWVALISYDGSNKYYADSVKGRFTISRDNSKNTLYLQMNSLRPEDTAGYFCAKSLYTTSWYGGFDYWGQGTLVTVSS VL: DIQMTQSPSSVSASVGDRVTITCRASQGIRSWLAWYQQKPGKAPNLLIYAASSLQSGVPSRFSGSGSGTDFTLTISSLQPEDFATYYCQQANSFPPTFGPGTKVDIK", "kon", 519000]
]}

# ---- query binder ----
Q. Return reported kon; argument: H4H9662P (antibody, V domains shown, Human IgG4 Fc (H4H)) VH: EVQLVESGGGLVQPGGSLRLSCAASGFTFSSYALTWVRQAPGKGLEWVSFISGSGGRPFYADSVKGRFTISRDNSKNMLYLQMNSLRAEDTAIYYCAKSLYTTSWYGGFDSWGQGTLVTVSS VL: DIQMTQSPSSVSASVGDRVTITCRASQGVVSWLAWYQQKPGKAPKLLIYAASSLQSGVPSRFSGSGSGTDFTLTISSLQPEDFATYYCQQSNSFPFTLGPGTKVDIK
A. 1.4e+06
